Assay Endpoint: melting point

Record excerpt, results attached:
{"columns": ["Molecule", "melting point"],
 "data": [
  ["CCCCCS(=O)(=O)NC(=O)/C=C/c1ccc(OCC(COC(C)C)OC(C)=O)cc1Oc1ncc(C(F)(F)F)cc1Cl (stereo not shown)", "101 to 103 °C"],
  ["CCCCOc1cc(CCS(=O)(=O)NC(=O)OCC(C)(C)C)n(Cc2ccc(Cl)cc2Cl)n1", "116 to 118 °C"],
  ["COCCOc1ccc(COC(=O)NS(=O)(=O)NCC(C)C)c(Oc2ncc(C(F)(F)F)cc2Cl)c1", "160 to 161 °C"],
  ["CCCCCNS(=O)(=O)NC(=O)OCc1ccc(OCCOC)cc1Oc1ncc(C(F)(F)F)cc1Cl", "153 to 155 °C"],
  ["CCCCCS(=O)(=O)NC(=O)/C=C/c1ccc(OCCOC)cc1Oc1cc(C(F)(F)F)ccc1[N+](=O)[O-]", "164.5 to 165.2 °C"],
  ["CCCCCNS(=O)(=O)NC(=O)/C(C)=C/c1ccc(OCCOC)cc1Oc1ncc(C(F)(F)F)cc1Cl", "152.5 to 153 °C"]
]}

As a next step, examine the molecule that follows.
Query (molecule): "CCCCNS(=O)(=O)NC(=O)OCc1ccc(OCCOC)cc1Oc1ncc(C(F)(F)F)cc1Cl" ; field requested: melting point
164 to 165 °C

----------
- Tested On: PPARγ-RXRα heterodimer (Homo sapiens)
- Sequence (P37231 29-505): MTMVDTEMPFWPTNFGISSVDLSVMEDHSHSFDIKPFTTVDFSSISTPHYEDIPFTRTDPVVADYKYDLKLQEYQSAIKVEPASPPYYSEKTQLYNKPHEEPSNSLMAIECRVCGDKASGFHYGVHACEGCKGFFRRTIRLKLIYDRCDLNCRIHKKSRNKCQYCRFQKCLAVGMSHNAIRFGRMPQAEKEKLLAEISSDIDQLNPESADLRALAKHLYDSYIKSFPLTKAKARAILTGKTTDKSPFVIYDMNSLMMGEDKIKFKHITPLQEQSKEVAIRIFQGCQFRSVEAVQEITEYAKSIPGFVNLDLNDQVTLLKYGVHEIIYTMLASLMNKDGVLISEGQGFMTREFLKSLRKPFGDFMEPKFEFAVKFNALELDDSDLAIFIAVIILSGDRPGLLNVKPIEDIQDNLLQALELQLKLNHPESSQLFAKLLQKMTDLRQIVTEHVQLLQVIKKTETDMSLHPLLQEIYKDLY
- Sequence (P19793 whole entry partner): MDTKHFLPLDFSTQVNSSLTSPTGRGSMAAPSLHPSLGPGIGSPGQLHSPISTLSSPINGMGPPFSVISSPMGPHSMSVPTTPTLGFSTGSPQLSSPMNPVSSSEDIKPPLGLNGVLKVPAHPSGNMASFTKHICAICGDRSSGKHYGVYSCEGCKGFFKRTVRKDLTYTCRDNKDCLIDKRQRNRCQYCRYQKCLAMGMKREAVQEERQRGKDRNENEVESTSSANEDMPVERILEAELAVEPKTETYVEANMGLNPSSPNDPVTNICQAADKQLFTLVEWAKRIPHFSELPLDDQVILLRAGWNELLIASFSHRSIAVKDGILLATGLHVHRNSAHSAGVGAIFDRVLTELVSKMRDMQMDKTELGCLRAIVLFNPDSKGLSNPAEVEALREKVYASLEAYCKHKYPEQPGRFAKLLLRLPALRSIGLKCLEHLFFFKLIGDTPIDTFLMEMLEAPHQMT
- Assay Protocol: PPARγ-RXRα heterodimer ligand activity (luciferase reporter, PPARγ:RXRα:4ERPP/CHO-K1 cells)
- Experimental Parameters: concentration showing 50% of the maximum luciferase induction rate; CHO-K1 reporter cells, one day incubation
The compounds listed here are annotated with their pEC50.
Note: pEC50 values are expressed as the negative base-10 logarithm of concentration in M.

{"columns": ["Compound", "Assay Endpoint", "Numeric Readout"],
 "data": [
  ["CCCCOC(=O)NS(=O)(=O)CCc1cc(OCCCC)nn1Cc1ccc(Cl)cc1Cl", "pEC50", 8.00],
  ["CCCCCS(=O)(=O)NC(=O)CCc1ccc(OCC(=O)N(CC)CC)cc1Oc1ncc(C(F)(F)F)cc1Cl", "pEC50", 8.16]
]}

As a next step, examine the compound that follows.
# returns recorded pEC50 (system: PPARγ-RXRα heterodimer (Homo sapiens)) for COCCOc1ccc(CCCOC(=O)NS(=O)(=O)c2ccc(C)cc2)c(Oc2ncc(C(F)(F)F)cc2Cl)c1 [Example 30, monohydrate]
8.42
